assay_target: Peptidyl-prolyl cis-trans isomerase FKBP4 (Homo sapiens)
Sequence (Q02790 whole entry): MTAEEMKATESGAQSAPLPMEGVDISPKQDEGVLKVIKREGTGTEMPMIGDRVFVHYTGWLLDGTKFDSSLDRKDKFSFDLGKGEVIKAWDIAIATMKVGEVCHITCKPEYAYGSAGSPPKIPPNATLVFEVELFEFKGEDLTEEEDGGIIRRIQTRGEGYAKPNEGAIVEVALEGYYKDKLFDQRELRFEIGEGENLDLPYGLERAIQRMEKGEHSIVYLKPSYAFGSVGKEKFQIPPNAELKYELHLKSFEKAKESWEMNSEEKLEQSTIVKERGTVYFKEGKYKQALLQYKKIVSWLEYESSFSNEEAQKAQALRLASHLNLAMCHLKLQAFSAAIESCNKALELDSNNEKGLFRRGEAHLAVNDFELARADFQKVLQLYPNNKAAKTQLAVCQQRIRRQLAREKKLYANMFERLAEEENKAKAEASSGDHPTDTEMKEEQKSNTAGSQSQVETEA
test: Inhibition of human full length N-terminal His-tagged/C-terminal FLAG tagged FKBP52 expressed in Escherichia coli BL21 (DE3) cells incubated for 30 mins by competitive fluorescence polarization assay
measurement_parameters: 0.5 h

[
  {
    "compound": "COc1ccc(CCC(OC(=O)C2CCCCN2C(=O)[C@@H]2C[C@@H](O)[C@@H](O)[C@@H]3CCCC[C@H]32)c2cccc(OCCN3CCOCC3)c2)cc1OC (single isomer, unassigned)",
    "inhibition (INH)": "Not Active"
  },
  {
    "compound": "COc1ccc(CCC(OC(=O)C2CCCCN2C(=O)[C@@H]2CCC(=O)[C@@H]3CCCC[C@H]32)c2cccc(OCCN3CCOCC3)c2)cc1OC (single isomer, unassigned)",
    "inhibition (INH)": "Not Active"
  },
  {
    "compound": "COc1ccc(CC[C@@H](OC(=O)[C@@H]2CCCCN2C(=O)[C@H]2[C@@H]3CCCC[C@H]3C=C[C@@H]2C)c2cccc(OCC(=O)O)c2)cc1OC",
    "inhibition (INH)": "Not Active"
  }
]
